# tested_target: Proteasome Macropain subunit MB1 (Homo sapiens, UniProt P28074)
# test_description: Inhibition of catalytic activity of constitutive proteasome 20s subunit beta5 in human Raji cells incubated for 1 hr by BODIPY(TMR)-NC-005-VS probe based competitive activity based protein profiling assay
# Type: cell-based
quantity: IC50

// for each molecule below, give its IC50
1. CC(C)C[C@H](NC(=O)[C@H](Cc1ccccc1)NC(=O)[C@H](CC(C)(C)C)NC(=O)[C@H](Cc1ccccc1)N=[N+]=[N-])C(=O)[C@@]1(C)CO1
2. CC(C)C[C@H](NC(=O)[C@H](Cc1ccccc1)NC(=O)[C@H](CC1CCC(C2CCCCC2)CC1)NC(=O)[C@H](Cc1ccccc1)N=[N+]=[N-])C(=O)[C@@]1(C)CO1 (stereo partly drawn)
3. CC(C)C[C@H](NC(=O)[C@H](Cc1ccccc1)NC(=O)[C@H](Cc1cccc2ccccc12)NC(=O)[C@H](Cc1ccccc1)N=[N+]=[N-])C(=O)[C@@]1(C)CO1

Response line:
1. 18 nM
2. 17 to 19 nM
3. < 10 nM

====

Answer each item with its documented pIC50(app).
# tested_target: Proteasome subunit beta type-9 (β1i, LMP2) (Homo sapiens) (UniProt P28065)
# Sequence (P28065 whole entry, looked up): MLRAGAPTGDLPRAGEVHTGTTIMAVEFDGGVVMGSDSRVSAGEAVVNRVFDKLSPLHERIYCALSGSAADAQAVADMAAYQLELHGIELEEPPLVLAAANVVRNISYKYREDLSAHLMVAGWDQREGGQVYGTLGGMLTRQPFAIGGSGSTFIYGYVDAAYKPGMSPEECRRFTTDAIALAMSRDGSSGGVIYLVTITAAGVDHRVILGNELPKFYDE
# test_description: Inhibition of catalytic activity of immunoproteasome 20s subunit beta1 in human Raji cells incubated for 1 hr by Cy5-NC-001 probe based competitive activity based protein profiling assay
Numbers only.

compound	pIC50(app)
CC(C)C[C@H](NC(=O)[C@H](Cc1ccccc1)NC(=O)[C@H](Cc1ccccc1)NC(=O)[C@H](Cc1ccccc1)N=[N+]=[N-])C(=O)[C@@]1(C)CO1	6.91

Here are 3 compounds. What values of pIC50(app) were reported for them?
1. COc1ccc(C[C@H](NC(=O)[C@H](Cc2ccccc2)N=[N+]=[N-])C(=O)N[C@@H](Cc2ccccc2)C(=O)N[C@@H](CC(C)C)C(=O)[C@@]2(C)CO2)cc1
2. CC(C)C[C@H](NC(=O)[C@H](Cc1ccccc1)NC(=O)[C@H](CCc1ccccc1)NC(=O)[C@H](Cc1ccccc1)N=[N+]=[N-])C(=O)[C@@]1(C)CO1
3. COC1CCC(C[C@H](NC(=O)[C@H](Cc2ccccc2)N=[N+]=[N-])C(=O)N[C@@H](Cc2ccccc2)C(=O)N[C@@H](CC(C)C)C(=O)[C@@]2(C)CO2)CC1 (some centres not stated)

Response line:
6.88
6.79
6.05

====

# tested_target: Proteasome Macropain subunit MB1 (Homo sapiens, UniProt P28074)
# Sequence (P28074 whole entry): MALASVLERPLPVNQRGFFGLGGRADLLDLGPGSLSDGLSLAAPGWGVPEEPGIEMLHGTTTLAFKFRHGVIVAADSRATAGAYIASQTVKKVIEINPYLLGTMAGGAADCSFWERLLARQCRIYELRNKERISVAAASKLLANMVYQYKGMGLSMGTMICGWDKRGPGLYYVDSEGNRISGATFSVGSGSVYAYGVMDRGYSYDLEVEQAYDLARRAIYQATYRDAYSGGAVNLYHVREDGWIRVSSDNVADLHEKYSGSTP
# test_description: Inhibition of catalytic activity of constitutive proteasome 20s subunit beta5 in human Raji cells incubated for 1 hr by BODIPY(TMR)-NC-005-VS probe based competitive activity based protein profiling assay
# Format: cell-based
quantity: IC50 (nM)
Numbers only, in nM.

Respectfully, I request IC50 for each entry included below.
1. C[C@H](NC(=O)[C@H](Cc1ccccc1)NC(=O)[C@H](C[C@H]1CC[C@H](c2ccccc2)CC1)NC(=O)[C@H](Cc1ccccc1)N=[N+]=[N-])C(=O)[C@@]1(C)CO1
2. C[C@H](NC(=O)[C@H](Cc1ccccc1)NC(=O)[C@H](CC1CCCCC1)NC(=O)[C@H](Cc1ccccc1)N=[N+]=[N-])C(=O)[C@@]1(C)CO1
3. CC(C)C[C@H](NC(=O)CN1CCOCC1)C(=O)N[C@@H](C[C@H]1CC[C@H](C2CCCCC2)CC1)C(=O)N[C@@H](Cc1ccccc1)C(=O)N[C@@H](C)C(=O)[C@@]1(C)CO1

Response line:
3.8
57
28

====

# tested_target: Proteasome Macropain subunit MB1 (Homo sapiens)
# test_description: Inhibition of catalytic activity of constitutive proteasome 20s subunit beta5 in human Raji cells assessed as residual activity at 0.01 uM incubated for 1 hr by BODIPY(TMR)-NC-005-VS probe based activity based protein profiling assay relative to control
# Assay type: cell-based
# cutoff 20% applies to Activity; >= gives true (1), < gives false (0)

Observe how each entry below is paired with its result.
molecule	tested_target	class
CC(C)C[C@H](NC(=O)[C@H](Cc1ccccc1)NC(=O)[C@H](Cc1c[nH]c2ccccc12)NC(=O)[C@H](Cc1ccccc1)N=[N+]=[N-])C(=O)[C@@]1(C)CO1	Proteasome Macropain subunit MB1 (Homo sapiens)	false (0)
Cc1ccc(C[C@H](NC(=O)[C@H](Cc2ccccc2)N=[N+]=[N-])C(=O)N[C@@H](Cc2ccccc2)C(=O)N[C@@H](CC(C)C)C(=O)[C@@]2(C)CO2)cc1	Proteasome Macropain subunit MB1 (Homo sapiens)	false (0)
CC(C)C[C@H](NC(=O)[C@H](Cc1ccccc1)NC(=O)[C@H](CC1CCC2CCCCC2C1)NC(=O)[C@H](Cc1ccccc1)N=[N+]=[N-])C(=O)[C@@]1(C)CO1 (some centres not stated)	Proteasome Macropain subunit MB1 (Homo sapiens)	true (1)
CC(C)C[C@H](NC(=O)[C@H](Cc1ccccc1)NC(=O)[C@H](Cc1ccc(-c2ccccc2)cc1)NC(=O)[C@H](Cc1ccccc1)N=[N+]=[N-])C(=O)[C@@]1(C)CO1	Proteasome Macropain subunit MB1 (Homo sapiens)	false (0)
COc1ccc(C[C@H](NC(=O)[C@H](Cc2ccc(-c3ccccc3)cc2)NC(=O)CN2CCOCC2)C(=O)N[C@@H](CC(C)C)C(=O)[C@@]2(C)CO2)cc1	Proteasome Macropain subunit MB1 (Homo sapiens)	true (1)

Prompt line: Say whether COc1ccc(C[C@H](NC(=O)[C@H](Cc2ccc3ccccc3c2)NC(=O)CN2CCOCC2)C(=O)N[C@@H](CC(C)C)C(=O)[C@@]2(C)CO2)cc1 shows Activity of 20% or more.
Response line: false (0)

Prompt line: Test whether the molecule CC(C)C[C@H](NC(=O)[C@H](Cc1ccccc1)NC(=O)[C@H](CC1CC2CCC1C2)NC(=O)[C@H](Cc1ccccc1)N=[N+]=[N-])C(=O)[C@@]1(C)CO1 (some centres not stated) records Activity of 20% or higher.
Response line: true (1)

====

# tested_target: Proteasome Macropain subunit MB1 (Homo sapiens) (UniProt P28074)
# test_description: Inhibition of catalytic activity of constitutive proteasome 20s subunit beta5 in human Raji cells incubated for 1 hr by BODIPY(TMR)-NC-005-VS probe based competitive activity based protein profiling assay
# Assay type: cell-based
quantity: pIC50(app)

compound	pIC50(app)
CC(C)C[C@H](NC(=O)[C@H](Cc1ccccc1)NC(=O)[C@H](CC1CCC(C)CC1)NC(=O)[C@H](Cc1ccccc1)N=[N+]=[N-])C(=O)[C@@]1(C)CO1 (stereo partly drawn)	8.7
CC(C)C[C@H](NC(=O)[C@H](Cc1ccccc1)NC(=O)[C@H](CCc1ccccc1)NC(=O)[C@H](Cc1ccccc1)N=[N+]=[N-])C(=O)[C@@]1(C)CO1	8.53

Please look at the following compound next.
Prompt line: // lookup pIC50(app) for COC1CCC(C[C@H](NC(=O)[C@H](Cc2ccccc2)N=[N+]=[N-])C(=O)N[C@@H](Cc2ccccc2)C(=O)N[C@@H](CC(C)C)C(=O)[C@@]2(C)CO2)CC1 (stereo partly drawn)
Response line: 8.68

====

Kindly supply the reported pIC50 values for the records listed here.
# tested_target: Proteasome Macropain subunit MB1 (Homo sapiens, UniProt P28074)
# test_description: Inhibition of catalytic activity of constitutive proteasome 20s subunit beta5 in human Raji cells incubated for 1 hr by BODIPY(TMR)-NC-005-VS probe based competitive activity based protein profiling assay
# Assay type: cell-based
One number for each entry, as −log10 of the molar value.

Some entries whose results are on file:
compound	quantity	recorded_measurement
CC(C)C[C@H](NC(=O)[C@H](Cc1ccccc1)NC(=O)[C@H](CC1CCC(C)CC1)NC(=O)[C@H](Cc1ccccc1)N=[N+]=[N-])C(=O)[C@@]1(C)CO1 (stereo partly specified)	pIC50	8.70
COc1ccc(C[C@H](NC(=O)[C@H](CC2CCCCC2)NC(=O)CN2CCOCC2)C(=O)N[C@@H](CC(C)C)C(=O)[C@@]2(C)CO2)cc1	pIC50	6.92

# input for lookup
Prompt line: Which pIC50 is listed for COC1CCC(C[C@H](NC(=O)[C@H](Cc2ccccc2)N=[N+]=[N-])C(=O)N[C@@H](Cc2ccccc2)C(=O)N[C@@H](CC(C)C)C(=O)[C@@]2(C)CO2)CC1 (stereo partly specified) ?
Response line: 8.68

====

# tested_target: Proteasome Macropain subunit MB1 (Homo sapiens, UniProt P28074)
# Sequence (P28074 whole entry): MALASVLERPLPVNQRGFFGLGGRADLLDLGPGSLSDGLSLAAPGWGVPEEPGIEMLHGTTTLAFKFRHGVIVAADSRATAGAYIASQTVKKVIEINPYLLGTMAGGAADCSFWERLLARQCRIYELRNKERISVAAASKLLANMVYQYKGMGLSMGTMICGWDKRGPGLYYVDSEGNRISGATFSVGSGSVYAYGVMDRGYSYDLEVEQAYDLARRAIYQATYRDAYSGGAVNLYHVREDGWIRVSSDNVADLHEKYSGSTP
# test_description: Inhibition of catalytic activity of constitutive proteasome 20s subunit beta5 in human Raji cells incubated for 1 hr by BODIPY(TMR)-NC-005-VS probe based competitive activity based protein profiling assay
# Type: cell-based
Rule: measured IC50 below 30 nM gets t; anything equal to or greater than 30 nM gets f.

compound	class
CC(C)C[C@H](NC(=O)[C@H](Cc1ccccc1)NC(=O)[C@H](CC1CC2CCC1C2)NC(=O)[C@H](Cc1ccccc1)N=[N+]=[N-])C(=O)[C@@]1(C)CO1 (stereo partly specified)	t
COc1ccc(C[C@H](NC(=O)[C@H](CC23CC4CC(CC(C4)C2)C3)NC(=O)CN2CCOCC2)C(=O)N[C@@H](C)C(=O)[C@@]2(C)CO2)cc1	f
CC(C)C[C@H](NC(=O)[C@H](Cc1ccccc1)NC(=O)[C@@H](NC(=O)[C@H](Cc1ccccc1)N=[N+]=[N-])C1CCCCC1)C(=O)[C@@]1(C)CO1	f

Prompt line: Given the entry C[C@H](NC(=O)[C@H](Cc1ccccc1)NC(=O)[C@H](Cc1ccc(-c2ccccc2)cc1)NC(=O)[C@H](Cc1ccccc1)N=[N+]=[N-])C(=O)[C@@]1(C)CO1 , would its reported IC50 be below 30 nM?
Response line: t

Prompt line: Say whether its IC50 is strictly beneath 30 nM. Entry: CC(C)C[C@H](NC(=O)[C@H](Cc1ccccc1)NC(=O)[C@H](CCc1ccccc1)NC(=O)[C@H](Cc1ccccc1)N=[N+]=[N-])C(=O)[C@@]1(C)CO1
Response line: t

Prompt line: is_below(IC50, 30 nM) for C[C@H](NC(=O)[C@H](Cc1ccccc1)NC(=O)[C@H](C[C@H]1CC[C@@H](c2ccccc2)CC1)NC(=O)[C@H](Cc1ccccc1)N=[N+]=[N-])C(=O)[C@@]1(C)CO1 ?
Response line: f

Prompt line: Record CC(C)C[C@H](NC(=O)[C@H](Cc1ccccc1)NC(=O)[C@H](CC1CCC2CCCCC2C1)NC(=O)[C@H](Cc1ccccc1)N=[N+]=[N-])C(=O)[C@@]1(C)CO1 (stereo partly specified) : is its IC50 strictly below 30 nM?
Response line: t

Prompt line: Lab log: compare recorded IC50 with 30 nM; is it strictly lower for CC(C)C[C@H](NC(=O)[C@H](Cc1ccccc1)NC(=O)[C@@H](NC(=O)[C@H](Cc1ccccc1)N=[N+]=[N-])c1ccccc1)C(=O)[C@@]1(C)CO1 ?
Response line: t

Prompt line: # TODO verify IC50 < 30 nM strictly for this compound: COc1ccc(C[C@H](NC(=O)[C@H](Cc2ccccc2)N=[N+]=[N-])C(=O)N[C@@H](Cc2ccccc2)C(=O)N[C@@H](CC(C)C)C(=O)[C@@]2(C)CO2)cc1
Response line: t

Prompt line: Hello, I'm reviewing records and need to know if IC50 of COc1ccc(C[C@H](NC(=O)[C@H](CC23CC4CC(CC(C4)C2)C3)NC(=O)CN2CCOCC2)C(=O)N[C@@H](CC(C)C)C(=O)[C@@]2(C)CO2)cc1 is below 30 nM. Could you check?
Response line: f
